Give measured γ2/γ1 Selectivity Ratio for each item. Keep answers brief.
test-system: human GABAA α1β3γ2 receptor (Homo sapiens (Human), UniProt P14867+P18507)
procedure-summary: Radioligand binding assay, competition for [3H]Flumazenil, γ2-containing GABAA subtypes
condition-info: Ki α1β3γ2 (nM)/Ki α2β2γ1 (nM), Table 1
Give a plain numeric answer without units written out.

Answer with γ2/γ1 Selectivity Ratio of C[C@@H]1N=C(c2c(F)cccc2F)c2c(sc3c2COCCC3)-n2nc(C(=O)N[C@H]3C[C@@H](O)C3)nc21 [Example 64] measured for human GABAA α1β3γ2 receptor (Homo sapiens (Human), UniProt P14867+P18507). 139.9

Answer with γ2/γ1 Selectivity Ratio of C[C@@H]1N=C(c2c(F)cccc2F)c2c(sc3c2COCCC3)-n2nc(C(=O)N[C@H]3C[C@H](O)C3)nc21 [Example 63] measured for human GABAA α1β3γ2 receptor (Homo sapiens (Human), UniProt P14867+P18507). 96.5

Answer with γ2/γ1 Selectivity Ratio of C[C@@H]1N=C(c2c(F)cccc2F)c2c(sc3c2COCCO3)-n2cc(C(=O)NCC3(O)CC3)nc21 [Example 65] measured for human GABAA α1β3γ2 receptor (Homo sapiens (Human), UniProt P14867+P18507). 53.8

Answer with γ2/γ1 Selectivity Ratio of Cc1nnc2n1-c1sc3c(c1C(c1c(F)cccc1F)=N[C@H]2C)CC[C@@H](F)CC3 (single isomer, unassigned) [Example 15] measured for human GABAA α1β3γ2 receptor (Homo sapiens (Human), UniProt P14867+P18507). 82.5
